- method notes: thallium influx changes without GIRK channels – cell-based, HEK-293 rmGlu8, no GIRK, thallium flux, counter-screen for GIRK activator project, confirmation (AID 623868);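 also: extra codes mark interference with 3 for fluorescent and 4 for baseline rise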
- conditions used: thallium flux fluorescence, at 10 µM, actives lie on both sides, codes: 1 enhancer, -1 blocker, 0 none, thallium stimulus containing EC20 glutamate
Screen size: about 2,100 compounds; about 760 (36%) were called active.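 The calls were made as follows: active = thallium-flux fluorescence traces judged by eye to show enhanced or reduced glutamate response, manual score 1 or -1, so both directions (some results past the limit were not filed as active); inactive = the rest, including fluorescent or raised-baseline compounds.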 These entries were drawn from the full list.
Give one outcome, nothing more. List: label 1 for active, label 0 for inactive

Query: recorded result category for CCOc1ccc(-c2nc(-c3ccncc3)no2)cc1OCC in this test
label 0

Query: recorded result category for COC(=O)C1CCCN1C(=O)c1cccs1 (stereo unspecified) in this test
label 0

Query: recorded result category for CCN(C(=O)COc1cc(=O)n(CC)c2ccccc12)c1cc(Cl)ccc1OC in this test
label 0

Query: recorded result category for O=C(NC(=S)N1CCCCC1)c1cccs1 in this test
label 1

Query: recorded result category for COc1ccc(NC2=NC(=S)N(c3ccccc3C)C23CCCCC3)cc1 in this test
label 1

Query: recorded result category for Cc1cc(C)c2nc(SC(C)C(=O)NCC(=O)Nc3ccc(F)c(F)c3F)cc(C)c2c1 (stereo unspecified) in this test
label 1

Query: recorded result category for COC(=O)c1cc(NC(=O)c2ccoc2C)cc(C(=O)OC)c1 in this test
label 0

Query: recorded result category for COc1ccc2nc(N3C(=O)/C(=C/c4ccccc4)NC3=S)sc2c1 in this test
label 1

Query: recorded result category for CC(C)Oc1cccc(C(=O)NC(=S)N2CCN(c3ccc(C(F)(F)F)cc3[N+](=O)[O-])CC2)c1 in this test
label 1

Query: recorded result category for COC(=O)CSc1nnc(SCc2ccc(OC)cc2)s1 in this test
label 0

Query: recorded result category for Cc1ccc(CC(=O)N2CCN(c3cccc(C(F)(F)F)c3)CC2)cc1 in this test
label 0
